Biological target: NDM-1 (Klebsiella pneumoniae)
Assay: Inhibitory activity on MBL, fluorescent substrate FC-5
Type: biochemical
Conditions: read-out: Inhibitory activity on MBL NDM-1 (IC50 class)
# reported IC50; entries follow

- Molecule: "O=C(O)c1c(Cn2cc(-c3ccccc3)nn2)ccc2c1OB(O)CC2 [Compound 12]"
  Target entity: "NDM-1 (Klebsiella pneumoniae)"
  IC50: "0.01 to 1 µM"
- Molecule: "CCCc1cn(Cc2ccc3c(c2C(=O)O)OB(O)CC3)nn1 [Compound 4]"
  Target entity: "NDM-1 (Klebsiella pneumoniae)"
  IC50: "0.01 to 1 µM"
- Molecule: "N#Cc1ccn(Cc2ccc3c(c2C(=O)O)OB(O)CC3)n1 [Compound 18]"
  Target entity: "NDM-1 (Klebsiella pneumoniae)"
  IC50: "0.01 to 1 µM"
- Molecule: "Nc1cnn(Cc2ccc3c(c2C(=O)O)OB(O)CC3)c1 [Compound 32]"
  Target entity: "NDM-1 (Klebsiella pneumoniae)"
  IC50: "0.01 to 1 µM"
- Molecule: "NC1CN(Cc2cnn(Cc3ccc4c(c3C(=O)O)OB(O)CC4)c2)C1 [Compound 75]"
  Target entity: "NDM-1 (Klebsiella pneumoniae)"
  IC50: "1 to 100 µM"
- Molecule: "O=C(O)c1c(Cn2ccnn2)ccc2c1OB(O)CC2 [Compound 2]"
  Target entity: "NDM-1 (Klebsiella pneumoniae)"
  IC50: "0.01 to 1 µM"
- Molecule: "NCCNCc1cnn(Cc2ccc3c(c2C(=O)O)OB(O)CC3)c1 [Compound 35]"
  Target entity: "NDM-1 (Klebsiella pneumoniae)"
  IC50: "1 to 100 µM"
- Molecule: "O=C(O)c1c(CN2CC=CC2)ccc2c1OB(O)CC2 [Compound 26]"
  Target entity: "NDM-1 (Klebsiella pneumoniae)"
  IC50: "1 to 100 µM"
- Molecule: "Nc1ccc(-c2cn(Cc3ccc4c(c3C(=O)O)OB(O)CC4)nn2)cn1 [Compound 60]"
  Target entity: "NDM-1 (Klebsiella pneumoniae)"
  IC50: "0.01 to 1 µM"

----------
# reported pIC50; entries follow
Biological target: NDM-5 (Klebsiella pneumoniae, UniProt C7C422, M154L/V88L)
Sequence (C7C422 29-270 V88L/M154L): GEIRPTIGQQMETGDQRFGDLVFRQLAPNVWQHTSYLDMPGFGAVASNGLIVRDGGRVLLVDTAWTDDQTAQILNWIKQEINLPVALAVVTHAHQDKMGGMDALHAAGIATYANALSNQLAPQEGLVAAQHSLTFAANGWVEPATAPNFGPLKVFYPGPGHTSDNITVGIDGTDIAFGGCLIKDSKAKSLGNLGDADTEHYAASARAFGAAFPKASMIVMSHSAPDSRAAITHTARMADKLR
Assay: Inhibitory activity on MBL, fluorescent substrate FC-5
Format: biochemical
Conditions: read-out: Inhibitory activity on MBL NDM-5 (IC50 class)
pIC50: −log10 of the molar value.

- Compound: "N#Cc1cnn(Cc2ccc3c(c2C(=O)O)OB(O)CC3)c1 [Compound 17]"
  pIC50: "6.00 to 8.00"
- Compound: "Cc1nccn1Cc1ccc2c(c1C(=O)O)OB(O)CC2 [Compound 24]"
  pIC50: "4.00 to 6.00"
- Compound: "NC(=O)c1ccn(Cc2ccc3c(c2C(=O)O)OB(O)CC3)n1 [Compound 20]"
  pIC50: "6.00 to 8.00"
- Compound: "O=C(O)c1c(Cn2cncn2)ccc2c1OB(O)CC2 [Compound 13]"
  pIC50: "6.00 to 8.00"
- Compound: "CO[C@H]1Cc2ccc(Cn3cc(CN)cn3)c(C(=O)O)c2OB1O [Compound 69]"
  pIC50: "4.00 to 6.00"
- Compound: "O=C(O)c1c(Cn2cc3c(n2)CNC3)ccc2c1OB(O)[C@@H]1C[C@H]21 [Compound 53]"
  pIC50: "6.00 to 8.00"
- Compound: "CN1Cc2cn(Cc3ccc4c(c3C(=O)O)OB(O)CC4)nc2C1 [Compound 74]"
  pIC50: "6.00 to 8.00"
- Compound: "NS(=O)(=O)NCc1cnn(Cc2ccc3c(c2C(=O)O)OB(O)CC3)c1 [Compound 36]"
  pIC50: "6.00 to 8.00"
- Compound: "CC(C)(N)C#Cc1cnn(Cc2ccc3c(c2C(=O)O)OB(O)CC3)c1 [Compound 46]"
  pIC50: "6.00 to 8.00"

----------
# reported pIC50; entries follow
Target: VIM-1 (Pseudomonas aeruginosa, UniProt A0A0F7KYQ8)
Assay: Inhibitory activity on MBL, fluorescent substrate FC-5
Type: biochemical
Details: read-out: Inhibitory activity on MBL VIM-1 (IC50 class)
pIC50: −log10 of the molar value.

- Structure as smiles: "O=C(O)c1c(CN2CC=CC2)ccc2c1OB(O)CC2"
  pIC50: "4.00 to 6.00"
- Structure as smiles: "O=C(O)c1c(Cn2cc(CN3CCCC3)nn2)ccc2c1OB(O)CC2"
  pIC50: "4.00 to 6.00"
- Structure as smiles: "O=C(O)c1c(Cn2cc(F)cn2)ccc2c1OB(O)CC2"
  pIC50: "4.00 to 6.00"
- Structure as smiles: "CCCc1cn(Cc2ccc3c(c2C(=O)O)OB(O)CC3)nn1"
  pIC50: "4.00 to 6.00"
- Structure as smiles: "Nc1ccc(-c2cn(Cc3ccc4c(c3C(=O)O)OB(O)CC4)nn2)cn1"
  pIC50: "6.00 to 8.00"

----------
Biological target: VIM-1 (Pseudomonas aeruginosa, UniProt A0A0F7KYQ8)
Assay: Inhibitory activity on MBL, fluorescent substrate FC-5
Assay type: biochemical
Details: read-out: Inhibitory activity on MBL VIM-1 (IC50 class)
Measure: IC50

- Compound: "N#Cc1cccn1Cc1ccc2c(c1C(=O)O)OB(O)CC2"
  Result: "1000 to 100000 nM"
- Compound: "NCCNCc1cnn(Cc2ccc3c(c2C(=O)O)OB(O)CC3)c1"
  Result: "1000 to 100000 nM"
- Compound: "N=C(N)Nc1cnn(Cc2ccc3c(c2C(=O)O)OB(O)CC3)c1"
  Result: "1000 to 100000 nM"
- Compound: "CN1Cc2cn(Cc3ccc4c(c3C(=O)O)OB(O)CC4)nc2C1"
  Result: "10 to 1000 nM"
- Compound: "N#Cc1cnn(Cc2ccc3c(c2C(=O)O)OB(O)CC3)c1"
  Result: "1000 to 100000 nM"
- Compound: "NCc1cnn(Cc2ccc3c(c2C(=O)O)OB(O)[C@@H](Sc2nncs2)C3)c1"
  Result: "1000 to 100000 nM"
- Compound: "N=C(N)N1CC(c2cn(Cc3ccc4c(c3C(=O)O)OB(O)CC4)nn2)C1"
  Result: "1000 to 100000 nM"
- Compound: "NS(=O)(=O)NCCc1cn(Cc2ccc3c(c2C(=O)O)OB(O)CC3)nn1"
  Result: "1000 to 100000 nM"
- Compound: "C[C@H]1Cc2ccc(Cn3ccnn3)c(C(=O)O)c2OB1O"
  Result: "10 to 1000 nM"
- Compound: "NCCN[C@H]1CC[C@H](CC(=O)N[C@H]2Cc3cccc(C(=O)O)c3OB2O)CC1 [Taniborbactam, reference compound]"
  Result: "10 to 1000 nM"
- Compound: "Nc1cnn(Cc2ccc3c(c2C(=O)O)OB(O)CC3)c1"
  Result: "1000 to 100000 nM"

----------
Target: TEM-1 (Escherichia coli)
Sequence (P62593 24-286 limits assumed): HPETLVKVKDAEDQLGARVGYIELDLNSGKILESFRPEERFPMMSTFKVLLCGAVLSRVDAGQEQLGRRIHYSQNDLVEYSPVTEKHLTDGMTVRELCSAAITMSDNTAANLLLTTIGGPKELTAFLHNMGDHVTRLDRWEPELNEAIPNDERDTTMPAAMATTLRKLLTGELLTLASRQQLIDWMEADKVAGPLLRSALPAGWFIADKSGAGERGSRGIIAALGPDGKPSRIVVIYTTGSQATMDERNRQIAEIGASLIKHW
pIC50: −log10 of the molar value.
# reported pIC50; entries follow

- Molecule: "C[n+]1ccn(Cc2ccc3c(c2C(=O)O)OB(O)CC3)n1 [Compound 3]"
  Target entity: "TEM-1 (Escherichia coli)"
  pIC50: "6.00 to 8.00"
- Molecule: "N#Cc1cccn1Cc1ccc2c(c1C(=O)O)OB(O)CC2 [Compound 25]"
  Target entity: "TEM-1 (Escherichia coli)"
  pIC50: "6.00 to 8.00"
- Molecule: "CCCc1cn(Cc2ccc3c(c2C(=O)O)OB(O)CC3)nn1 [Compound 4]"
  Target entity: "TEM-1 (Escherichia coli)"
  pIC50: "6.00 to 8.00"
- Molecule: "NCCNc1cnn(Cc2ccc3c(c2C(=O)O)OB(O)CC3)c1 [Compound 33]"
  Target entity: "TEM-1 (Escherichia coli)"
  pIC50: "6.00 to 8.00"
- Molecule: "NC1CN(C(=O)c2cnn(Cc3ccc4c(c3C(=O)O)OB(O)CC4)c2)C1 [Compound 72]"
  Target entity: "TEM-1 (Escherichia coli)"
  pIC50: "> 8.00"
- Molecule: "NS(=O)(=O)NCc1cnn(Cc2ccc3c(c2C(=O)O)OB(O)CC3)c1 [Compound 36]"
  Target entity: "TEM-1 (Escherichia coli)"
  pIC50: "> 8.00"
- Molecule: "NS(=O)(=O)Nc1cnn(Cc2ccc3c(c2C(=O)O)OB(O)CC3)c1 [Compound 34]"
  Target entity: "TEM-1 (Escherichia coli)"
  pIC50: "> 8.00"
- Molecule: "NCCc1cn(Cc2ccc3c(c2C(=O)O)OB(O)CC3)nn1 [Compound 8]"
  Target entity: "TEM-1 (Escherichia coli)"
  pIC50: "6.00 to 8.00"
- Molecule: "CO[C@H]1Cc2ccc(Cn3ccnn3)c(C(=O)O)c2OB1O [Compound 30]"
  Target entity: "TEM-1 (Escherichia coli)"
  pIC50: "6.00 to 8.00"
- Molecule: "O=C(O)c1c(Cn2cc3c(n2)CNC3)ccc2c1OB(O)[C@@H]1C[C@H]21 [Compound 53]"
  Target entity: "TEM-1 (Escherichia coli)"
  pIC50: "6.00 to 8.00"
- Molecule: "NCCCc1cn(Cc2ccc3c(c2C(=O)O)OB(O)CC3)nn1 [Compound 9]"
  Target entity: "TEM-1 (Escherichia coli)"
  pIC50: "6.00 to 8.00"
- Molecule: "CN1Cc2cn(Cc3ccc4c(c3C(=O)O)OB(O)CC4)nc2C1 [Compound 74]"
  Target entity: "TEM-1 (Escherichia coli)"
  pIC50: "> 8.00"
- Molecule: "NS(=O)(=O)c1ccc(-c2cn(Cc3ccc4c(c3C(=O)O)OB(O)CC4)nn2)cc1 [Compound 62]"
  Target entity: "TEM-1 (Escherichia coli)"
  pIC50: "6.00 to 8.00"
- Molecule: "Nc1ccc(-c2cn(Cc3ccc4c(c3C(=O)O)OB(O)CC4)nn2)cn1 [Compound 60]"
  Target entity: "TEM-1 (Escherichia coli)"
  pIC50: "6.00 to 8.00"
- Molecule: "O=C(O)c1c(Cn2ccc3cncnc32)ccc2c1OB(O)CC2 [Compound 55]"
  Target entity: "TEM-1 (Escherichia coli)"
  pIC50: "> 8.00"
- Molecule: "NC1CN(Cc2cnn(Cc3ccc4c(c3C(=O)O)OB(O)CC4)c2)C1 [Compound 75]"
  Target entity: "TEM-1 (Escherichia coli)"
  pIC50: "4.00 to 6.00"
